Please go through the items and note down their Bliss excess.
# Tested on: IA-LM (Non-Small Cell Lung Carcinoma)
# Assay Info: Bliss excess, mean over the matrix (fraction); higher = more synergy;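 further: after 72 h of two-drug dosing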
Give a plain numeric answer without units written out.

Returns the measured Bliss excess for the input compound. Input: C=CCn1c(=O)c2cnc(Nc3ccc(N4CCN(C)CC4)cc3)nc2n1-c1cccc(C(C)(C)O)n1 [AZD1775] + C[C@@H]1COCCN1C2=NC(=NC(=C2)C3(CC3)[S@](=N)(=O)C)C4=C5C=CNC5=NC=C4 [AZD6738] (first compound max 1 µM, partner max 10 µM) 0.0477

Returns the measured Bliss excess for the input compound. Input: Cc1cc2ncnn2cc1Nc1ncc2c(n1)n(C1CCOCC1)c(=O)n2C [AZD7648] + CN(C)CCCOc1ccc(-c2ccc3ncc4c(c3c2)n(C2CCOCC2)c(=O)n4C)cn1 [AZD0156] (first compound max 10 µM, 7x7, partner max 1 µM) -0.0133

Returns the measured Bliss excess for the input compound. Input: CN(C)CCCOc1ccc(-c2ccc3ncc4c(c3c2)n(C2CCOCC2)c(=O)n4C)cn1 [AZD0156] + CCN(CCO)CCCOc1ccc2c(Nc3cc(CC(=O)Nc4cccc(F)c4)[nH]n3)ncnc2c1 [AZD2811] (first compound max 1 µM, 7x7, partner max 1 µM) -0.0326

Returns the measured Bliss excess for the input compound. Input: C[C@@H](c1ccc2nccn2c1)n1nnc2ncc(-c3cnn(C)c3)nc21 [Savolitinib] + CC1(C)CCC(CN2CCN(c3ccc(C(=O)NS(=O)(=O)c4ccc(NCC5CCOCC5)c([N+](=O)[O-])c4)c(Oc4cnc5[nH]ccc5c4)c3)CC2)=C(c2ccc(Cl)cc2)C1 [Venetoclax] (first compound max 1 µM, 7x7, partner max 1 µM) -0.0963

====

Please go through the items and note down their Bliss excess.
# Tested on: TUR (Acute Myeloid Leukemia)
# Assay Info: Bliss excess, mean over the matrix (fraction); higher = more synergy
Give a plain numeric answer without units written out.

Returns the measured Bliss excess for the input compound. Input: CC1(C)CCC(CN2CCN(c3ccc(C(=O)NS(=O)(=O)c4ccc(NCC5CCOCC5)c([N+](=O)[O-])c4)c(Oc4cnc5[nH]ccc5c4)c3)CC2)=C(c2ccc(Cl)cc2)C1 [Venetoclax] + C1CN(CCC1(C(=O)N[C@@H](CCO)C2=CC=C(C=C2)Cl)N)C3=NC=NC4=C3C=CN4 [Capivasertib] (first compound max 1 µM, 7x7, partner max 3 µM) -0.0176

Returns the measured Bliss excess for the input compound. Input: Cc1c2c(nn1C)CSCc1cc(n(C)n1)CSc1cc(c3ccccc3c1)OCCCc1c(C(=O)O)n(C)c3c-2c(Cl)ccc13 [AZD5991] + CC1(C)CCC(CN2CCN(c3ccc(C(=O)NS(=O)(=O)c4ccc(NCC5CCOCC5)c([N+](=O)[O-])c4)c(Oc4cnc5[nH]ccc5c4)c3)CC2)=C(c2ccc(Cl)cc2)C1 [Venetoclax] (first compound max 1 µM, 7x7, partner max 1 µM) 0.138

Returns the measured Bliss excess for the input compound. Input: Cn1cnc2c(F)c(Nc3ccc(Br)cc3Cl)c(C(=O)NOCCO)cc21 [Selumetinib] + C[C@@H]1COCCN1C2=NC(=NC(=C2)C3(CC3)[S@](=N)(=O)C)C4=C5C=CNC5=NC=C4 [AZD6738] (first compound max 10 µM, 7x7, partner max 10 µM) 0.0151

Returns the measured Bliss excess for the input compound. Input: NC1(C(=O)N[C@@H](CCO)c2ccc(Cl)cc2)CCN(c2ncnc3[nH]ccc23)CC1 [Capivasertib] + COc1nnc2ccc(N3CCC(c4ccc(OCCN5CCN(C)C(=O)[C@H]5C)cc4)CC3)nn12 [AZD5153] (first compound max 10 µM, 7x7, partner max 1 µM) 0.0661

Returns the measured Bliss excess for the input compound. Input: CN(C)CCCOc1ccc(-c2ccc3ncc4c(c3c2)n(C2CCOCC2)c(=O)n4C)cn1 [AZD0156] + O=C(c1cc(Cc2n[nH]c(=O)c3ccccc23)ccc1F)N1CCN(C(=O)C2CC2)CC1 [Olaparib] (first compound max 3 µM, partner max 3 µM) 0.0469

Returns the measured Bliss excess for the input compound. Input: CN(CCO)CC[C@H](CSc1ccccc1)Nc1ccc(S(=O)(=O)NC(=O)c2ccc(N3CCC([C@@H](O)c4ccccc4-c4ccc(Cl)cc4)CC3)cc2)cc1S(=O)(=O)C(F)(F)F [AZD4320] + CCN(CCO)CCCOc1ccc2c(Nc3cc(CC(=O)Nc4cccc(F)c4)[nH]n3)ncnc2c1 [AZD2811] (first compound max 1 µM, 7x7, partner max 1 µM) 0.0393

Ref: the supplement of paper PMC11061612
